The entries below come with measured TGI values attached.
# System: NCI-H226 lung
# Measurement description: NCI tumour cell line growth inhibition, 48 h

Some solved entries appear below for comparison.
O=C1CCCC2=C1CC1=C(CCCC1=O)N2c1ccccc1C(=O)O	> 100 µM
COc1ccc(/C=C/C(=O)C(C)(C)CN2CCCCC2)cc1	45.9 µM

Field: next compound
Q: Value wanted: TGI (NCI-H226 lung) of entry COc1ccc(-c2nsc3c2NC(=O)CC3c2ccc(F)cc2)cc1 (stereo not drawn)
A: > 100 µM

---

# Test system: U251 CNS
Give one outcome, nothing more. List: true (active), false (inactive)

Sample answers from the record:
CN(C)CCCNC(=O)c1ccc2oc3cc4ccccc4c(=O)n3c2c1	false
CNC(=O)c1c(NC(=O)c2ccc(C(F)(F)F)cc2)sc2c1CCC(=O)C2	true
Cn1cc(-c2csc(-c3cn(C)c4ccc(Br)cc34)n2)c2cnccc21	false
CCN(CC)CC.CCOc1ccc(NC(=O)N=C=[N-])cc1.[CH-]1CCCCC1.[CH-]1CCCCC1.[CH-]1CCCCC1.[Cl-].[Sn+4]	true
CC(C)CC1C(=O)N2CCC[C@H]2C2(O)O[C@](NC(=O)C3C=C4c5cccc6[nH]c(Br)c(c56)C[C@H]4N(C)C3)(C(C)C)C(=O)N12 (some centres not stated)	false

Q: Field: outcome | Entry: CCN(CC)c1ccc(C2CC(c3cc(OC)c(OC)c(OC)c3)=NN2)cc1 (configuration not stated)
A: true

Q: Field: outcome | Entry: `COc1c2c3ccccc3nc-2n(C)c2ccccc12`
A: false

---

# System: SK-MEL-28 melanoma
# Measurement description: NCI tumour cell line growth inhibition, 48 h
The entries below come with measured TGI values attached.

Some solved entries appear below for comparison.
O=C(/C=C/c1ccc(O)c(O)c1)OC1C[C@@](O)(C(=O)O)C[C@@H](O)[C@H]1OC(=O)/C=C/c1ccc(O)c(O)c1 (some centres undefined)	> 100 µM
CN[C@@H](C)C(=O)N[C@H]1CN(C(=O)CC(C)C)CC[C@H]2CC[C@@H](C(=O)NC(c3ccccc3)c3ccccc3)N2C1=O	> 100 µM
CCCOc1ccc(-c2nc(-c3ccc(N=Cc4ccc(N(CCOS(C)(=O)=O)CCOS(C)(=O)=O)cc4C)cc3)cs2)cc1	> 100 µM

Field: next molecule
Q: Request the reported TGI associated with `COc1c(C)c2c(c3c1c(=O)c1ccccc1n3C)C=CC(C)(C)O2`
A: 55.1 µM

---

# Tested on: UACC-62 melanoma
# Measurement description: NCI tumour cell line growth inhibition, 48 h
The entries below come with measured GI50 values attached.

Q: Request the reported GI50 associated with `N=C(N)/N=C(\N)c1c(-c2cc(O)ccc2O)nc2sccn12`
A: 44.6 µM

Q: Request the reported GI50 associated with `CN1CCC(CNc2ccc3ncc(-c4cccc(OC(F)(F)F)c4)n3n2)CC1`
A: 1.76 µM

Q: Request the reported GI50 associated with `NC(=O)C1c2ccccc2C=Cc2ccccc21`
A: > 100 µM

Q: Request the reported GI50 associated with `N.N.N.N.O=NN1CCCCCC1(P(=O)([O-])[O-])P(=O)([O-])[O-].[Pt+4].[Pt+4]`
A: > 100 µM

Q: Request the reported GI50 associated with `COc1cccc(Cn2c(-c3nonc3N)nc3ccccc32)c1`
A: 0.493 µM

Q: Request the reported GI50 associated with `O=C(N/N=C/c1ccccc1O)C(O)(c1ccccc1)c1ccccc1`
A: 15 µM

---

The entries below come with measured TGI values attached.
# System: LOX IMVI melanoma
# Measurement description: NCI tumour cell line growth inhibition, 48 h
Where a SMILES comes first, the peptide text is derived from it. [ ]: non-standard residue; d: D form. The star is where a group is joined. Phe(4-NO2) = N[CH](Cc1ccc([N+](=O)[O-])cc1)C(=O)O; Cbz = O=C(OCc1ccccc1)*

CC1(C)C(C#N)=[N+]([O-])C(C)(C)N1O	> 100 µM
CC1C(=NO)C(C)C(c2ccccc2)N(N=O)C1c1ccccc1 (stereo not given)	29.3 µM
NC(=O)C1c2ccccc2C=Cc2ccccc21	> 100 µM
CCOC(=O)CCC(NC(=O)OCc1ccccc1)C(=O)NC(CCC(=O)OCC)C(=O)NC(Cc1ccc([N+](=O)[O-])cc1)C(=O)NC(CCC(=O)OCC)C(=O)NC(CCC(=O)OCC)C(=O)OCC (stereo not given) (Cbz-E(OEt)E(OEt)[Phe(4-NO2)]E(OEt)E(OEt)-OEt; configuration not given here)	> 100 µM
Cc1ccc2c(c1)C(C)Cc1c(ncnc1-n1cnc3cc(C)ccc31)N2C (stereo not given)	12.2 µM
Cc1ccc(-n2c3nc(=O)n(C)c(=O)c-3nc3ccccc32)cc1	43.7 µM
O=C(Nc1cccc(NC(=O)C(=O)C2CCC3=C(Sc4ccccc4N3)C2=O)n1)C(=O)C1CCC2=C(Sc3ccccc3N2)C1=O (stereo not given)	> 100 µM
c1ccc(N=C(N2CCOCC2)N(CCN2CCOCC2)c2ccccc2)cc1	> 100 µM

Q: Request the reported TGI associated with `Cc1cccc(NC(=S)Nc2ccc([N+](=O)[O-])cc2)n1`
A: > 100 µM

Q: Request the reported TGI associated with CCN1C(=O)N(CC)C2C1NN=c1s/c(=C\c3ccccc3F)c(=O)n12 (stereo not given)
A: > 100 µM

Q: Request the reported TGI associated with `NCCCCCCCCn1c2c(c3ccccc3c1=O)C(=O)c1ccccc1-2`
A: > 100 µM

Q: Request the reported TGI associated with O=C(O)C1=C(C(=O)Nc2ccccc2)C2C=CC1C2 (stereo not given)
A: > 100 µM

Q: Request the reported TGI associated with `COc1cc2c(c(OC)c1O)-c1ccc(OC)c(=O)cc1[C@@H](NC(=O)C(F)(F)F)CC2`
A: > 100 µM

---

# Tested on: MDA-N
# Measurement description: NCI tumour cell line growth inhibition, 48 h
Test readout: TGI

c1ccc(CSC2(SCc3ccccc3)CCCC2)cc1	> 10 µM

Q: Value wanted: TGI (MDA-N) of entry `CCN(CC)C(=S)SNc1ccc(S(N)(=O)=O)cc1`
A: > 100 µM

Q: Value wanted: TGI (MDA-N) of entry CC(C)(C)N1C(=O)c2ccccc2C1(O)C(F)(F)F (stereo unspecified)
A: > 100 µM

Q: Value wanted: TGI (MDA-N) of entry `CC(C)/C(Cl)=N/OC(=O)Nc1cccc(C(F)(F)F)c1`
A: 23.7 µM

Q: Value wanted: TGI (MDA-N) of entry `COc1c2ccoc2cc2oc(=O)ccc12`
A: > 100 µM

Q: Value wanted: TGI (MDA-N) of entry `CCC(=O)C1(N2CCOCC2)CCN(CCCC(=O)c2ccc(F)cc2)CC1`
A: > 100 µM

Q: Value wanted: TGI (MDA-N) of entry `CCN(CC)CC.CCOc1ccc(NC(=O)N=C=[N-])cc1.[CH-]1CCCCC1.[CH-]1CCCCC1.[CH-]1CCCCC1.[Cl-].[Sn+4]`
A: 0.0471 µM

---

The entries below come with measured TGI values attached.
# Tested on: M14 melanoma
# Measurement description: NCI tumour cell line growth inhibition, 48 h
// units = µM; emit number, no label

Some solved entries appear below for comparison.
C=CC(=O)N1C/C(=C\c2ccccc2)C(=O)/C(=C/c2ccccc2)C1	4.58
CC1=C(C(=O)Nc2ccccc2)C(c2ccc([N+](=O)[O-])cc2)C(C(=O)Nc2ccccc2)=C(C)N1	41.8
O=Cc1ccc(-c2ccc(-c3nc4ccccc4[nH]3)cc2)s1	43.2

Field: next compound
Q: Request the reported TGI associated with `CC(C)CCSC1=CC(=O)c2ccccc2C1=O`
A: 33.4

---

# Test system: A498 renal
# Measurement description: NCI tumour cell line growth inhibition, 48 h
Test readout: TGI

Some solved entries appear below for comparison.
O=C(CSc1nnc(Cc2ccccc2)o1)Nc1cccc(Cl)c1	> 100 µM
CC(=O)OCC1OC(n2c(C#N)cc(=O)[nH]c2=O)CC1OC(C)=O (stereo not drawn)	> 100 µM
C/C1=C/C(=O)O[C@@H]2C[C@@H](CC[C@H](C)/C=C\C=C\CC1)O[C@@](O)([C@@H]1CSC(=O)N1CO)C2	0.0724 µM
Cc1ccc2c3c(cnc2n1)C(=O)OCCN3C	> 100 µM
C1=Nc2ccc(cc2)N=Cc2ccccc2OCc2cccc(n2)COc2ccccc21	> 100 µM
O=C(Cc1nc2ccccc2s1)Nc1ccc(Cl)cc1	> 100 µM

Q: Request the reported TGI associated with `C=CC(=O)N1C/C(=C\c2ccccc2)C(=O)/C(=C/c2ccccc2)C1`
A: 4.03 µM

Q: Request the reported TGI associated with `CN(C)C(=S)N1C(=S)N(c2ccccc2)C(=Nc2ccccc2)C1=Nc1ccccc1`
A: > 100 µM

Q: Request the reported TGI associated with COc1ccc(-c2nsc3c2NC(=O)CC3c2ccc(F)cc2)cc1 (stereo not drawn)
A: > 100 µM
